Target: HDAC6 (Homo sapiens, UniProt Q9UBN7)
Construct: purchased Reaction Biology Corporation (assay run by the CRO)
Sequence (Q9UBN7 whole entry): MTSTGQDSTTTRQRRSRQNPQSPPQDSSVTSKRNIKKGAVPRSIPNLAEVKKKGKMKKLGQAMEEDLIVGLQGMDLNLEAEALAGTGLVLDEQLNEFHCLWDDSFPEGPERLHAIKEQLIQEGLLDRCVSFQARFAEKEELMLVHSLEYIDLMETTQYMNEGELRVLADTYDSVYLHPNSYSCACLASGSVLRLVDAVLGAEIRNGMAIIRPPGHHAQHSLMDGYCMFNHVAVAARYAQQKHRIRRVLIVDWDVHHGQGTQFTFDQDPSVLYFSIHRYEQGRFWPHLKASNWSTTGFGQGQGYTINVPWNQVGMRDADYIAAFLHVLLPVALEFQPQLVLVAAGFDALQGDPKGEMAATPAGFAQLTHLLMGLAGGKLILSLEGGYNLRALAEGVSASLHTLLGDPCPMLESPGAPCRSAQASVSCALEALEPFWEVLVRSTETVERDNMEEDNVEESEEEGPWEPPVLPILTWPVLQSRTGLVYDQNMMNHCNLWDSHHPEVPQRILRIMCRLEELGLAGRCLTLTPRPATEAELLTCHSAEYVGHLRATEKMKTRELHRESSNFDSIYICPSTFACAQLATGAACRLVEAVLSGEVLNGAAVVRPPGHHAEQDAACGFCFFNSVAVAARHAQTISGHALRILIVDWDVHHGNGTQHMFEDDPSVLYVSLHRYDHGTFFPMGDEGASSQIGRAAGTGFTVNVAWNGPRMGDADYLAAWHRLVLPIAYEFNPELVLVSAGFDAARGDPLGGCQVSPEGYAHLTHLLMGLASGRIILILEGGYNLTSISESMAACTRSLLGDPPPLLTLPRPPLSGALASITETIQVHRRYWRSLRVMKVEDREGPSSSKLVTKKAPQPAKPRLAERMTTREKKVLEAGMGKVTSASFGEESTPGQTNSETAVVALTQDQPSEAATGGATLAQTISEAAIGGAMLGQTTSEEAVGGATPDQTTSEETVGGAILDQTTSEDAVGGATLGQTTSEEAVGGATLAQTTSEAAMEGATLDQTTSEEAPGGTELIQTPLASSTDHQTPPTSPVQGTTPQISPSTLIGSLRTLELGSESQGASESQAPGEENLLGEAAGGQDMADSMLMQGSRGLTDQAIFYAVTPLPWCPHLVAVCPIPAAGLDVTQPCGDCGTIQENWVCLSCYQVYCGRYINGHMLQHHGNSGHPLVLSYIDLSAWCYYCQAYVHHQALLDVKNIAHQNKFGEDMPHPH
Test: HDAC6 inhibition, full IC50 measurement (Reaction Biology; fluorogenic p53 peptide RHKK(Ac)AMC)
Format: biochemical
Details: Conc. 1.37E-08 M, t1
Method: The assay was performed using 50 μM fluorogenic peptide from p53 residues 379-382 [RHKK(Ac)AMC] in a base reaction buffer of 50 mM Tris-HCl at pH 8.0, 137 mM NaCl, 2.7 mM KCl, 1 mM MgCl2, and freshly added 1 mg/ml BSA and 1% DMSO. […] Peptide concentrations were calculated based on mass of lyophilized peptide and its molecular weight. […]
Peptide text beside a SMILES is read from it.
observable: HDAC6 activity raw data (signal)
Returns: the value as a bare number; no unit string appended.

Task: Supply measured HDAC6 activity raw data (signal) of NCCCC[C@@H]1NC(=O)[C@@H]2CCCN2C(=O)[C@H](CC(N)=O)NC(=O)[C@H](CCCCCS)NC(=O)CNC(=O)[C@H](Cc2c[nH]c3ccccc23)NC(=O)[C@@H](CCCCN)NC(=O)[C@H](CCC(N)=O)NC1=O [des1.1.0, SHA-Asn-Pro-Lys-Gln-dLys-Trp-Gly] (HELM PEPTIDE1{G.[O=C([C@H](CCCCCS)N[*:1])[*:2]].N.P.K.Q.[dK].W}$PEPTIDE1,PEPTIDE1,1:R1-8:R2$$$V2.0) in your reply.
Output: 427941

* * *

We begin with a simple list: items and their reported HDAC3 activity raw data (signal).
Molecular target: HDAC3 (Homo sapiens)
Construct: purchased Reaction Biology Corporation (assay run by the CRO)
Sequence (O15379 whole entry): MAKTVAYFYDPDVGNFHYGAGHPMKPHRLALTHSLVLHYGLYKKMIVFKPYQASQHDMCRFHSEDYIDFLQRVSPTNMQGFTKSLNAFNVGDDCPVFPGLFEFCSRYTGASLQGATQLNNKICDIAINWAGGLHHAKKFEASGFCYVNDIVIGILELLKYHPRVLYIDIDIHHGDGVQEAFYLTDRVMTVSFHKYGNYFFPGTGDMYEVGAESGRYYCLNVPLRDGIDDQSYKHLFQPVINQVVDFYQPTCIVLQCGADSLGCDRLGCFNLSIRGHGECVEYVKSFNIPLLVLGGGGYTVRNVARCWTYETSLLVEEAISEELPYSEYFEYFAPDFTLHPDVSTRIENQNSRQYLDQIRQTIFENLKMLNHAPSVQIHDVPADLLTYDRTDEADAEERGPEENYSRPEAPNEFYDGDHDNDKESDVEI
Sequence (Q9Y618 395-489 partner limits assumed): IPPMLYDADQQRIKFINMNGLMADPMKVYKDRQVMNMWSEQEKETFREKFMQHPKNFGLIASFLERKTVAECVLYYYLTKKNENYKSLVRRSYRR
Assay: HDAC3 inhibition, full IC50 measurement (Reaction Biology; fluorogenic p53 peptide RHKK(Ac)AMC)
Assay type: biochemical
Conditions: Conc. 1.52E-09 M, t1
Peptide text beside a SMILES is read from it.

1) CC(C)C[C@H]1NC(=O)[C@H](Cc2c[nH]c3ccccc23)NC(=O)[C@H](CCCCCS)NC(=O)[C@@H](Cc2ccc(O)cc2)NC(=O)[C@@H](C(C)C)NC(=O)[C@H](Cc2c[nH]cn2)NC(=O)CNC(=O)CNC(=O)[C@@H](CO)NC1=O [des2.2.0, SHA-Trp-dLeu-dSer-Gly-Gly-His-dVal-dTyr] (HELM PEPTIDE1{G.G.H.[dV].[dY].[O=C([C@H](CCCCCS)N[*:1])[*:2]].W.[dL].[dS]}$PEPTIDE1,PEPTIDE1,1:R1-9:R2$$$V2.0): 1012899
2) NCCCC[C@@H]1NC(=O)[C@@H]2C[C@@H](O)CN2C(=O)[C@H](CC(N)=O)NC(=O)[C@H](CCCCCS)NC(=O)CNC(=O)[C@H](Cc2c[nH]c3ccccc23)NC(=O)[C@@H](CCCCN)NC(=O)[C@H](CCC(N)=O)NC1=O [des1.1.2, SHA-Asn-Hpr-Lys-Gln-dLys-Trp-Gly] (HELM PEPTIDE1{G.[O=C([C@H](CCCCCS)N[*:1])[*:2]].N.[Hyp].K.Q.[dK].W}$PEPTIDE1,PEPTIDE1,1:R1-8:R2$$$V2.0): 1408573

Task: Supply recorded HDAC3 activity raw data (signal) for CSCC[C@H]1NC(=O)[C@@H](CO)NC(=O)[C@H](CC(N)=O)NC(=O)[C@H](CC(=O)O)NC(=O)[C@@H]([C@H](C)O)NC(=O)[C@H](Cc2c[nH]c3ccccc23)NC(=O)[C@H](CCCCCS)NC(=O)[C@H](CCCCN)NC(=O)[C@@H](CC(=O)O)NC1=O [des2.1.1, SHA-Trp-dThr-Asp-Asn-dSer-dMet-dAsp-Lys] (HELM PEPTIDE1{D.N.[dS].[dM].[dD].K.[O=C([C@H](CCCCCS)N[*:1])[*:2]].W.[dT]}$PEPTIDE1,PEPTIDE1,1:R1-9:R2$$$V2.0) here.
Output: 1292643

Task: For the compound CC(C)[C@@H]1NC(=O)[C@H](CCCNC(=N)N)NC(=O)[C@@H](CC(=O)O)NC(=O)[C@H](CO)NC(=O)[C@@H](CO)NC(=O)[C@@H](CCC(=O)O)NC(=O)[C@H](Cc2ccc(O)cc2)NC(=O)[C@H](CCCCCS)NC1=O [des4.2.0, SHA-Tyr-dGlu-dSer-Ser-dAsp-Arg-Val] (HELM PEPTIDE1{R.V.[O=C([C@H](CCCCCS)N[*:1])[*:2]].Y.[dE].[dS].S.[dD]}$PEPTIDE1,PEPTIDE1,1:R1-8:R2$$$V2.0) , give its measured HDAC3 activity raw data (signal) value.
Output: 1186064

Task: Please supply the value of reported HDAC3 activity raw data (signal) for the item N=C(N)NCCC[C@@H]1NC(=O)[C@H](Cc2c[nH]c3ccccc23)NC(=O)[C@H](CC(=O)O)NC(=O)[C@@H](CO)NC(=O)[C@H](Cc2c[nH]c3ccccc23)NC(=O)[C@H](CCCCCS)NC(=O)[C@H](CCC(N)=O)NC1=O [des4.1.0, SHA-Trp-dSer-Asp-Trp-Arg-Gln] (HELM PEPTIDE1{D.W.R.Q.[O=C([C@H](CCCCCS)N[*:1])[*:2]].W.[dS]}$PEPTIDE1,PEPTIDE1,1:R1-7:R2$$$V2.0)
Output: 1051534

Task: Let me know recorded HDAC3 activity raw data (signal) for NCCCC[C@@H]1NC(=O)[C@@H]2CCCN2C(=O)[C@H](CC(N)=O)NC(=O)[C@H](CCCCCS)NC(=O)CNC(=O)[C@H](Cc2c[nH]c3ccccc23)NC(=O)[C@@H](CCCCN)NC(=O)[C@H](CCC(N)=O)NC1=O [des1.1.0, SHA-Asn-Pro-Lys-Gln-dLys-Trp-Gly] (HELM PEPTIDE1{G.[O=C([C@H](CCCCCS)N[*:1])[*:2]].N.P.K.Q.[dK].W}$PEPTIDE1,PEPTIDE1,1:R1-8:R2$$$V2.0) , thanks.
Output: 1432990
